Catalogue of IC50 [M] CTG, MCF-7 cells (B7H3-positive) readings, one per entry.
target.or.test.system: T1, B7H3 on B7H3-positive human tumour cells (A498, MCF-7, Caki-2, 786-0) (human, UniProt Q5ZPR3 29-534)
T1 sequence (looked up): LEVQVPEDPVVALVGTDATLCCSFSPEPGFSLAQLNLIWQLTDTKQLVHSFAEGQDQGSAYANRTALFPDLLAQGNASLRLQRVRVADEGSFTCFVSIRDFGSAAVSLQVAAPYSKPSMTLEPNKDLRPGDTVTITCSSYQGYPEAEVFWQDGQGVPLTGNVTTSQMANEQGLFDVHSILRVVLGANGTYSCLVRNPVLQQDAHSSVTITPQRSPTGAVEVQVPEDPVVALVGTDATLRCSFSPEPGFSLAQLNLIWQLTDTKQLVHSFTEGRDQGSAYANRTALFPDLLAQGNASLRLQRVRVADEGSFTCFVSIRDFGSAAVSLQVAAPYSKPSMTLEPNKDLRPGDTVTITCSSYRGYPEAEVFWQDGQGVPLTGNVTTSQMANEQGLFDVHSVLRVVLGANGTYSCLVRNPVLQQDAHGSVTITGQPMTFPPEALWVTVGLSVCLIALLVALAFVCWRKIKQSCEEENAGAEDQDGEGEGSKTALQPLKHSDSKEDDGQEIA
assay: cell-based or functional assay
Field format: number, assumed M, no unit text.

{"binder": "Example 270L1: anti-B7H3 AK1A (TPP-3803) coupled with Intermediate F270 (antibody, human IgG1, kappa, V domains shown, KSP inhibitor-linker (Intermediate F270) on cysteine residues of the partially reduced antibody, sites not given; drug/mAb ratio 2.8) VH: QVKLQQSGAELVKPGASVKLSCKASGYTFTNYDINWVRQRPEQGLEWIGWIFPGDGSTQYNEKFKGKATLTTDTSSSTAYMQLSRLTSEDSAVYFCARQTTATWFAYWGQGTTVTVSS VL: DIELTQSPTTLSVTPGDRVSLSCRASQSISDYLHWYQQKSHESPRLLIKYASQSISGIPSRFSGSGSGSDFTLSINSVEPEDVGVYYCQNGHSFPLTFGAGTKLELKR", "test.value": "7e-08"}
{"binder": "Example 275L2: anti-B7H3 AK1B (TPP-5706) coupled with Intermediate F275 (antibody, human IgG1, kappa, V domains shown, KSP inhibitor-linker (Intermediate F275) on cysteine residues of the partially reduced antibody, sites not given; drug/mAb ratio 3.8) VH: QVQLQQPGAELVKPGASVKMSCKASGYTFTIYNVHWIKQTPGQGLEWMGTIFPGNGDTSYNQKFKDKATLTTDKSSKTAYMQLNSLTSEDSAVYYCARWDDGNVGFAHWGQGTLVTVSA VL: DIQMTQSPASLSASVGETVTITCRASENINNYLTWFQQKQGKSPQLLVYHAKTLAEGVPSRFSGSGSGTQFSLKINSLQPEDFGSYYCQHHYGTPPTFGGGTKLEIKR", "test.value": "9.15e-11"}
{"binder": "Example 240L1: anti-B7H3 AK1A (TPP-3803) coupled with Intermediate F240 (antibody, human IgG1, kappa, V domains shown, KSP inhibitor-linker (Intermediate F240) on cysteine residues of the partially reduced antibody, sites not given; drug/mAb ratio 2.7) VH: QVKLQQSGAELVKPGASVKLSCKASGYTFTNYDINWVRQRPEQGLEWIGWIFPGDGSTQYNEKFKGKATLTTDTSSSTAYMQLSRLTSEDSAVYFCARQTTATWFAYWGQGTTVTVSS VL: DIELTQSPTTLSVTPGDRVSLSCRASQSISDYLHWYQQKSHESPRLLIKYASQSISGIPSRFSGSGSGSDFTLSINSVEPEDVGVYYCQNGHSFPLTFGAGTKLELKR", "test.value": "7.25e-10"}
{"binder": "Example 284L2: anti-B7H3 AK1B (TPP-5706) coupled with Intermediate F284 (antibody, human IgG1, kappa, V domains shown, KSP inhibitor-linker (Intermediate F284) on cysteine residues of the partially reduced antibody, sites not given; drug/mAb ratio 3.0) VH: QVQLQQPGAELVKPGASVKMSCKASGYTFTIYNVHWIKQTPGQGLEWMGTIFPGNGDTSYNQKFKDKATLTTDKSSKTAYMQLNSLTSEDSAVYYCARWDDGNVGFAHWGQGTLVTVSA VL: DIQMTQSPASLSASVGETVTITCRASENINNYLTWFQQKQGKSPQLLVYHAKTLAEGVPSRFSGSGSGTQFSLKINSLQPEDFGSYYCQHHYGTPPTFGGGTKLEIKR", "test.value": "7.02e-10"}

Find the recorded IC50 [M] CTG, MCF-7 cells (B7H3-positive) belonging to Example 281L2: anti-B7H3 AK1B (TPP-5706) coupled with Intermediate F281 (antibody, human IgG1, kappa, V domains shown, KSP inhibitor-linker (Intermediate F281) on cysteine residues of the partially reduced antibody, sites not given; drug/mAb ratio 2.4) VH: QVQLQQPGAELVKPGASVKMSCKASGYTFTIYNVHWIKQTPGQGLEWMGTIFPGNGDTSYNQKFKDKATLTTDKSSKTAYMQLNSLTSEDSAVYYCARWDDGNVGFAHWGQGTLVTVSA VL: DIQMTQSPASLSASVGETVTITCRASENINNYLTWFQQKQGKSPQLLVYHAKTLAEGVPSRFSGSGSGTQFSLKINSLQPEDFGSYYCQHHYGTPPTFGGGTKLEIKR and report it.
3.42e-08
